# assayedTarget: T1, RSV prefusion F (preF), subtype B (respiratory syncytial virus subtype B)
# T1 construct: also called Prefusion subtype B
# assayComment: BLI, IgG
quantity: pKd
One number for each entry, as −log10 of the molar value.

{"binder": "ADI-22764 (antibody, V domains shown, full-length IgG) VH: QVQLVESGPGLVRPSGTLSLTCAVSGGSISGKNWWSWVRQPPGKGLEWIGEIDHSGSTNYNPSLKSRVTISVDKSKNQFSLKLSSVTAADTAVYYCARTGLYDSSGYYLYYFNYWGQGTLVTVSS VL: EIVMTQSPSSLSASVGDRVTISCRASQTIASYVNWYQQRPGKAPNLLIFAASNLQTGVPSRFRGSGSGTVFTLTISSLQPEDFATYYCQQSYSTPRTFGQGTKVDIK", "obsValue": 8.85}

Please turn your attention to the following entry.
Query block: Could you please provide reported pKd for ADI-24850 (antibody, V domains shown, full-length IgG) VH: QVQLVQSGGGLVKPGGSLRLSCAASGFTFSSYSMNWVRQAPGKGLEWVSSISSSSSYIYYADSVKGRFTISRDNAKNSLYLQMNSLRAEDTAVYYCAREDYGDYYYYYMDVWGKGTTVTVSS VL: QPVLTQPPSVSGAPGQRVTISCTGSSSNIGAGYDVHWYQQLPGTAPKLLIYGNSNRPSGVPDRFSGSKSGTSASLAITGLQAEDEADYYCQSYDSSLSGYVFGTGTKVTVL ? Thanks!
Result block: 8.25

Reference source for all entries: patent US20260258115A1
